Target: full length human recombinant glucocorticoid receptor (Homo sapiens, UniProt P04150)
Construct: partially purified full length human recombinant glucocorticoid receptor; purchased Panvera/Invitrogen PV4302
Sequence (P04150 1-777): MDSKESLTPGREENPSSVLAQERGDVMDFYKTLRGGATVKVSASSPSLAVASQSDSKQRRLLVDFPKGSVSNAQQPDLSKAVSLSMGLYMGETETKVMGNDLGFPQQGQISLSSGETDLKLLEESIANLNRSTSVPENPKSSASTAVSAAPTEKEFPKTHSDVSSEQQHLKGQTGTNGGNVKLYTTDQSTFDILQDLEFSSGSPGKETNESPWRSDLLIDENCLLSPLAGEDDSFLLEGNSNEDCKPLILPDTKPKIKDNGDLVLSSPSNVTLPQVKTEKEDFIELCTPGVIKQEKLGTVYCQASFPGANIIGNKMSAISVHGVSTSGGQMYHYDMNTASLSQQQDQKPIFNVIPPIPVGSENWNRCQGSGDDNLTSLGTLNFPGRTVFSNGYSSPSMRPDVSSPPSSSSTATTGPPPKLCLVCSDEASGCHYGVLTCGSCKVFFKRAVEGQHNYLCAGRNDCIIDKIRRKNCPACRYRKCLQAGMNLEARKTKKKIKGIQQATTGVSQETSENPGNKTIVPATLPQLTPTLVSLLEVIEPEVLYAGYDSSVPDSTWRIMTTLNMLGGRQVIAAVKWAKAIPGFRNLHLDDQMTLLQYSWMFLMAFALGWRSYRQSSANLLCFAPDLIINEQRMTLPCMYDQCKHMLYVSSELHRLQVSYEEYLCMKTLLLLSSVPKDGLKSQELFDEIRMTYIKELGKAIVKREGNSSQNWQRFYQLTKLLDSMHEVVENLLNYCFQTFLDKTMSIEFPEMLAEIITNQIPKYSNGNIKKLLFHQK
Experiment: Glucocorticoid Receptor Binding Assay (fluorescence polarization competitor assay, Fluormone GS Far Red tracer)
pKi: −log10 of the molar value.
MEASURED_QUANTITY: pKi

1 = COC(=O)c1cccc(COc2ccc(C(C)C(O)(c3cnc(C)cn3)C(F)(F)F)c(Cl)c2)c1 (centres unmarked) [Example 3]
2 = C[C@H](c1ccc(C(=O)Nc2cccc(C(=O)O)n2)cc1Cl)[C@@](O)(c1ccnc(Cl)c1)C(F)(F)F (relative stereo) [Example 44]
3 = CC(c1ccc(Oc2ccc(F)c(C(=O)O)c2)cc1Cl)C(O)(c1ccnc(Cl)c1)C(F)(F)F (centres unmarked) [Example 91]
Exam item: Reorder: pKi, max to min. Arrange the labels as the request states and list them.
Marked response: 3, 1, 2

----------
Target: full length human recombinant glucocorticoid receptor (Homo sapiens)
Construct: partially purified full length human recombinant glucocorticoid receptor; purchased Panvera/Invitrogen PV4302
Sequence (P04150 1-777): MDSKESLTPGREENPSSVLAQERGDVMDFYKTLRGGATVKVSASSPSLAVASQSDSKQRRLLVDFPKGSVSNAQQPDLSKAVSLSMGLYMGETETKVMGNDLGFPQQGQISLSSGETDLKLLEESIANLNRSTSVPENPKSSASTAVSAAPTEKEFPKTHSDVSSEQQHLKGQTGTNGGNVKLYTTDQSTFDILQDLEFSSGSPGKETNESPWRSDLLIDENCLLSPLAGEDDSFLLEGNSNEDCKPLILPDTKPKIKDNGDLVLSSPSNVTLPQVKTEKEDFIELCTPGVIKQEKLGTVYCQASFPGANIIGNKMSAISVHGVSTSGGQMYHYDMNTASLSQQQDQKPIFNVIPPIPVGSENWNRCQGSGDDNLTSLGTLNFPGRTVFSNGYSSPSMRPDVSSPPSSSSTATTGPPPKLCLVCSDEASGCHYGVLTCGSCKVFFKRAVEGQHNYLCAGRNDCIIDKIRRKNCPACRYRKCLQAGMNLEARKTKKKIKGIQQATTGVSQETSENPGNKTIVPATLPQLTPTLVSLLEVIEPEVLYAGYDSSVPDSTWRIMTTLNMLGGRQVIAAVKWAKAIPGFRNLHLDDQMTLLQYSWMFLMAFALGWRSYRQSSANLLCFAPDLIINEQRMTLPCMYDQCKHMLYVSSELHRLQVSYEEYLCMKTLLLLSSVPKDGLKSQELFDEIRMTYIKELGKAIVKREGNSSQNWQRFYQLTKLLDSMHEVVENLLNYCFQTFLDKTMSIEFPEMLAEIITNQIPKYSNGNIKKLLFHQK
Experiment: Glucocorticoid Receptor Binding Assay (fluorescence polarization competitor assay, Fluormone GS Far Red tracer)
Conditions: Ki calculated from IC50 by Cheng-Prusoff; 3 hours at 22° C., pH 7.4
MEASURED_QUANTITY: Ki (nM)
Numeric only. Scale: nM

Exam item: Would you kindly share the measured Ki for Cc1cc([C@@](O)([C@@H](C)c2ccc(Oc3ccc(C(=O)O)cc3C(F)(F)F)cc2Cl)C(F)(F)F)cn(C)c1=O (single isomer, unassigned) [Example 241] ?
Marked response: 1.7

----------
Biological target: full length human recombinant glucocorticoid receptor (Homo sapiens, UniProt P04150)
Construct: partially purified full length human recombinant glucocorticoid receptor; purchased Panvera/Invitrogen PV4302
Experiment: Glucocorticoid Receptor Binding Assay (fluorescence polarization competitor assay, Fluormone GS Far Red tracer)
MEASURED_QUANTITY: Ki (nM)

The examples below pair each entry with its known result.
COC(=O)c1cnc(Oc2ccc([C@@H](C)[C@@](O)(c3ccc(=O)n(C)c3)C(F)(F)F)c(Cl)c2)cc1C(F)(F)F (relative stereo) ... 23.8
COc1cc(C(=O)O)ccc1COc1ccc(C(C)C(O)(c2ccnc(C)c2)C(F)(F)F)c(Cl)c1 (stereo not shown) ... 6.1
COC(=O)c1cnc(OCc2ccc([C@@H](C)[C@@](O)(c3ccnc(Cl)c3)C(F)(F)F)c(Cl)c2)nc1 (stereo in doubt) ... 8.8

I = C[C@H](c1cc(Oc2ncc(C(=O)O)cn2)ccc1Cl)[C@@](O)(c1ccnc(Cl)c1)C(F)(F)F (relative stereo)
II = Cc1cc([C@](O)([C@H](C)c2ccc(Oc3ccc(C(=O)O)cn3)cc2Cl)C(F)(F)F)cn(C)c1=O
Exam item: Which is greater in Ki, the first item I or the second item II ? Lab log: write the label of the selected item as the result.
Marked response: I
(I: 253 nM, II: 14.8 nM)

----------
Target: full length human recombinant glucocorticoid receptor (Homo sapiens, UniProt P04150)
Construct: partially purified full length human recombinant glucocorticoid receptor; purchased Panvera/Invitrogen PV4302
Sequence (P04150 1-777): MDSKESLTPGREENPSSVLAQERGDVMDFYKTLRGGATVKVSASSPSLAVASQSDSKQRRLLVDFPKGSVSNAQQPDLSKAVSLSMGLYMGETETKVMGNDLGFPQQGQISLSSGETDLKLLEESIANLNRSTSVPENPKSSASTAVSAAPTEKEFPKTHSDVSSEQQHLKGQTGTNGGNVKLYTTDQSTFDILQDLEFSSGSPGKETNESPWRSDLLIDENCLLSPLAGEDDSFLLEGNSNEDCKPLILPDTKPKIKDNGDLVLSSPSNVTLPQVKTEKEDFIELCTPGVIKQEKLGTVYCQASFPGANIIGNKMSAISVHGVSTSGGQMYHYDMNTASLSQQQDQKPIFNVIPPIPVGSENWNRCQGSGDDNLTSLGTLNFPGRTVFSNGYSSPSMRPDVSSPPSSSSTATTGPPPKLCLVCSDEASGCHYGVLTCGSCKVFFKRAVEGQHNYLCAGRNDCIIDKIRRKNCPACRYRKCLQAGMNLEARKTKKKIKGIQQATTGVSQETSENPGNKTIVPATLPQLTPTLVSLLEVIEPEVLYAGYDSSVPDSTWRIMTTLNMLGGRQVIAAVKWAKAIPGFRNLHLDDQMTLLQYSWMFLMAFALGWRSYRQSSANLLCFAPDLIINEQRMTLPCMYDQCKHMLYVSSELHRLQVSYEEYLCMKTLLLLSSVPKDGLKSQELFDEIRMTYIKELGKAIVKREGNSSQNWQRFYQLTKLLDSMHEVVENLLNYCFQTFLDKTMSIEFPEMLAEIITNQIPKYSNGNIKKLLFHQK
Assay: Glucocorticoid Receptor Binding Assay (fluorescence polarization competitor assay, Fluormone GS Far Red tracer)
pKi: −log10 of the molar value.
MEASURED_QUANTITY: pKi

A = COC(=O)c1cnc(Oc2ccc([C@H](C)[C@](O)(c3cc(C)c(=O)n(C)c3)C(F)(F)F)c(Cl)c2)c(Cl)c1 (stereo in doubt)
B = Cc1cc([C@@](O)([C@@H](C)c2ccc(Oc3ccc(C(=O)O)c(C(F)(F)F)n3)cc2Cl)C(F)(F)F)cn(C)c1=O (stereo in doubt)
Exam item: Consider entries A and B . Which has the numerically lower pKi? Lab log: write the label of the selected item as the result.
Marked response: A
(A: 8.52, B: 8.85)

----------
Biological target: full length human recombinant glucocorticoid receptor (Homo sapiens)
Construct: partially purified full length human recombinant glucocorticoid receptor; purchased Panvera/Invitrogen PV4302
Experiment: Glucocorticoid Receptor Binding Assay (fluorescence polarization competitor assay, Fluormone GS Far Red tracer)
pKi: −log10 of the molar value.
MEASURED_QUANTITY: pKi

The examples below pair each entry with its known result.
CCOC(=O)c1ccc(COc2ccc([C@@H](C)[C@@](O)(c3ccnc(Cl)c3)C(F)(F)F)c(Cl)c2)cc1 (stereo in doubt) [Example 19] ... 7.34
CCOC(=O)C1CCN(C(=O)c2ccc([C@@H](C)[C@@](O)(c3ccnc(Cl)c3)C(F)(F)F)c(Cl)c2)CC1 (stereo in doubt) [Example 32] ... 6.61

a = Cc1cc([C@@](O)([C@@H](C)c2ccc(Oc3cc(C(F)(F)F)c(C(=O)O)cn3)cc2Cl)C(F)(F)F)cn(C)c1=O (stereo in doubt) [Example 206]
b = Cc1cc(C(O)(C(C)c2ccc(-c3ccc(CC(=O)O)cc3)cc2Cl)C(F)(F)F)ccn1 (stereo not shown) [Example 64]
c = Cc1cc([C@@](O)([C@@H](C)c2ccc(Oc3ccc(C(=O)O)cc3Cl)cc2Cl)C(F)(F)F)cn(C)c1=O [Example 244]
d = Cc1cnc(C(O)(C(C)c2ccc(OCCOc3ccc(C(=O)O)cc3)cc2Cl)C(F)(F)F)cn1 (stereo not shown) [Example 10]
e = Cc1cc(C(O)(C(C)c2ccc(OCc3ccnc(C(=O)O)c3)cc2Cl)C(F)(F)F)ccn1 (stereo not shown) [Example 102]
Exam item: Descending sort on pKi required. Arrange the labels as the request states and list them.
Marked response: a, e, b, d, c
(a: 9.15, e: 7.69, b: 7.18, d: 6.51, c: 6.22)
